- Target system: T1, human glucagon receptor (human, UniProt P47871 26-477)
- T1 construct: whole, on cells; Used as crude membranes of stably transfected HEK293 cells; also called hGcgR; hGLcgR
- T1 sequence (P47871 26-477): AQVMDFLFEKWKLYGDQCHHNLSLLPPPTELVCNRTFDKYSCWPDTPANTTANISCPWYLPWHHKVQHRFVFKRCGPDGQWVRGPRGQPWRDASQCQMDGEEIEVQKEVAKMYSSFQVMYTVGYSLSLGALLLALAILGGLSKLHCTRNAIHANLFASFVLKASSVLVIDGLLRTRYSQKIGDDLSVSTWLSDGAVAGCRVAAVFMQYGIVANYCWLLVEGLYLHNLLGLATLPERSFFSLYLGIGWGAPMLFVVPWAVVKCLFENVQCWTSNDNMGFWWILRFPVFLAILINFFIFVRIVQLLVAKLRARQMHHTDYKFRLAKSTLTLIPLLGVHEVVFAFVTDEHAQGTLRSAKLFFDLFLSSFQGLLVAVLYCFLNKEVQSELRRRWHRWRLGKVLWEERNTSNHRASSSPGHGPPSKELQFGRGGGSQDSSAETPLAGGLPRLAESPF
- Method description: SPA, [125I]-Gcg displacement, hGcgR membranes
pKi: −log10 of the molar value. Square brackets hold non-standard residues; d marks the D form. Side chains are listed from the residue outwards. Ends that are not written are not given here. * marks the point of attachment. C20 diacid = O=C(O)CCCCCCCCCCCCCCCCCCC(=O)*; αMeL = CC(C)C[C@](C)(N)C(=O)O; αMeK = C[C@](N)(CCCCN)C(=O)O; Dab = NCC[C@H](N)C(=O)O; AEEA = NCCOCCOCC(=O)O; Aib = CC(C)(N)C(=O)O
Class yes: pKi at least 7. Class no: pKi below 7.

• YXEGTXTSDYSIXLDEKAQXEFIXYLIEGGPSSGAPPPS (Aib2; αMeF(2F)6; αMeL13; K17((2-[2-(2-Amino-ethoxy)-ethoxy]-acetyl)2-(γ-Glu)-CO-(CH2)18-CO2H); Aib20; D-Glu24; C-terminal NH2) [Example 1] = no
• H[Aib]EGTFTSDYSI[αMeL]LDKK([Dab-AEEA-Dab-AEEA-C20 diacid])AQ[αMeK]AFIQYLLA[Aib]GPSSGAPPPS-NH2 [Example 19] = yes
• YXEGTXTSDXSIXLDXKAQXEFIXXLIEGGPSSGAPPPS (not fully specified; Aib2; αMeF(2F)6; 4Pal10; αMeL13; Orn16; K17((2-[2-(2-Amino-ethoxy)-ethoxy]-acetyl)2-(γ-Glu)-CO-(CH2)16-CO2H); Aib20; D-Glu24; αMeY25; C-terminal NH2) [Example 4] = no
• YXXGTFTSDYSILLDKKAQXAFIEYLIEGGPSSGAPPPS (Aib2; γ-Glu3; K17((2-[2-(2-Amino-ethoxy)-ethoxy]-acetyl)2-(γ-Glu)-CO-(CH2)18-CO2H); Aib20; C-terminal NH2) [Example 91] = no
